subject_of_test: cyclooxygenase-1 (Homo sapiens, UniProt P23219)
Construct: human U-937 cells (which specifically express cyclooxygenase-1); endogenous in cells; host or cells: human U-937 cells
Sequence (P23219 24-599): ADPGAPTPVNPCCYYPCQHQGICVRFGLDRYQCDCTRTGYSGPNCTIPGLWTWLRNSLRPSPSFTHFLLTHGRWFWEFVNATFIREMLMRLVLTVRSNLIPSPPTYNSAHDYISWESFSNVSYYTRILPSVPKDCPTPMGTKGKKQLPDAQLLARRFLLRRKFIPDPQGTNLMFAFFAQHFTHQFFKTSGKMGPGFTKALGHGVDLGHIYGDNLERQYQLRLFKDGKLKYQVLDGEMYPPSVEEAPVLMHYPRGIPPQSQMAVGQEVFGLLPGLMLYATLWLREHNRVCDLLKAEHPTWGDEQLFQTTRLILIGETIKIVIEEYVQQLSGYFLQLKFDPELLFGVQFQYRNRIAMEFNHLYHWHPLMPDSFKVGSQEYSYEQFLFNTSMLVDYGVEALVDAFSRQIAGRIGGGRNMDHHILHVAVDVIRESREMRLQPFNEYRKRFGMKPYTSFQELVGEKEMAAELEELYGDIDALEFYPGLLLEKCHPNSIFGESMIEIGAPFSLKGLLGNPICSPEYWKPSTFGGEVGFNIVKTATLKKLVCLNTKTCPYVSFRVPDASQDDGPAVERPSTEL
assay: Inhibition of cyclooxygenase activity: Cox-1 (PGE2 production in response to arachidonic acid, radioimmunoassay; human U-937 cells)
Type: cell-based
condition_description: Conc. 1000 nM, read-out: Cox-1% inhib.
reported_metric: inhibition at 1 µM (%)
Answers are plain numbers, in %.

# annotated cases, reported inhibition at 1 µM shown
compound_smiles: NS(=O)(=O)c1ccc(-c2c(-c3ccc(F)c(F)c3)sc3c2COC3=O)cc1
subject_of_test: cyclooxygenase-1 (Homo sapiens, UniProt P23219)
inhibition at 1 µM / %: 21
//
compound_smiles: CS(=O)(=O)c1ccc(-c2c(-c3ccc(F)c(F)c3)sc3c2COC3=O)cc1
subject_of_test: cyclooxygenase-1 (Homo sapiens, UniProt P23219)
inhibition at 1 µM / %: 4
//
compound_smiles: CS(=O)(=O)c1ccc(-c2c(-c3ccccc3)sc3ccccc23)cc1
subject_of_test: cyclooxygenase-1 (Homo sapiens, UniProt P23219)
inhibition at 1 µM / %: 3
//
compound_smiles: CS(=O)(=O)c1ccc(-c2c(-c3ccc(F)cc3)[nH]c3ccccc23)cc1
subject_of_test: cyclooxygenase-1 (Homo sapiens, UniProt P23219)
inhibition at 1 µM / %: 0

Would you kindly look at the next entry?
# query: inhibition at 1 µM of entry CS(=O)(=O)c1ccc(-c2c(-c3ccccc3)sc3c2CC(=O)OC3)cc1
28
